Tested on: HT-29 cells
Test: Cytotoxicity assay (CCK-8)
Type: cell-based, Human
Details: human, 24 h
readout-label: CC50 (µM)

• COC1=C2C[C@@H](C)C[C@H](OC)[C@H](O)[C@@H](C)/C=C(\C)[C@H](OC(N)=O)[C@@H](OC)/C=C\C=C(/C)C(=O)NC(=CC1=O)C2=O [GA, geldanamycin] = 29.2
